# Tested on: Jurkat cells
# ASSAY_NOTES: Growth inhibiting activity for human leukemia T cell line Jurkat cells (Cell Count Reagent SF, cell viability)
# Assay type: cell-based
# ASSAY_SETUP: Homo sapiens, 72 hours culture, cell viability by absorbance A450-A630
One threshold, 3000 nM, splits the recorded IC50 values: lower ones are 1 (yes), equal or higher ones are 0 (no).

[[record]]
molecule = "C/C(=C\\C[N+](C)(C)C)CCC[C@H](C)CCC[C@H](C)CCCC(C)C.[Br-] (racemic)"
assigned_label = "1 (yes)"

[[record]]
molecule = "C/C(=C\\CN)CCC[C@H](C)CCC[C@H](C)CCCC(C)C (racemic) [rac-PT10, reference compound]"
assigned_label = "0 (no)"

[[record]]
molecule = "C/C(=C\\CNC(C)(C)C)CCC[C@H](C)CCC[C@H](C)CCCC(C)C (racemic)"
assigned_label = "0 (no)"

[[record]]
molecule = "CC[N+](CC)(CC)C/C=C(\\C)CCC[C@H](C)CCC[C@H](C)CCCC(C)C.[Br-] (racemic)"
assigned_label = "1 (yes)"

[[record]]
molecule = "C/C(=C\\Cn1c(N)ccnc1=O)CCC[C@H](C)CCC[C@H](C)CCCC(C)C (racemic)"
assigned_label = "0 (no)"

[[record]]
molecule = "C/C(=C\\CN(C)C)CCC[C@H](C)CCC[C@H](C)CCCC(C)C (racemic)"
assigned_label = "1 (yes)"

[[record]]
molecule = "C/C(=C\\CNC(C)C)CCC[C@H](C)CCC[C@H](C)CCCC(C)C (racemic)"
assigned_label = "1 (yes)"


FYI, the data here is from patent US20240189258A1.
